Biological target: human adenosine A2b receptor (Homo sapiens)
Test: Cellular reporter gene (CRE-luciferase) A2b receptor antagonist assay in recombinant CHO-K1 cells stimulated with NECA
Settings: recombinant CHO-K1 cell line, co-incubation with EC50 concentration of NECA, 3 hours, in some cases means, rounded to two significant digits
QUANTITY_MEASURED: pIC50
Give bare numbers, as −log10 of the molar value.

In [3]: df
Out[3]:
                                   compound  test_result
0  CCn1c(=O)c2c(C)c(C(=O)N3CCC(O)CC3)sc2n(CCC(C)C)c1=O [Example 134]         6.44
1  O=C1CN(C(=O)c2sc3c(c2C(F)(F)F)c(=O)n(CCc2ccccc2)c(=O)n3CCC(F)(F)F)CCN1 [Example 41]         7.59

Next up:
Task: Recorded pIC50 of Cc1cccc(CCn2c(=O)c3c(C)c(C(=O)N4CCC(O)CC4)sc3n(CCC(F)(F)F)c2=O)c1 [Example 11] , please.
Output: 6.29

---

Consider the following compounds; for each one, report its pIC50.
Biological target: human adenosine A2b receptor (Homo sapiens, UniProt P29275)
Sequence (P29275 1-332): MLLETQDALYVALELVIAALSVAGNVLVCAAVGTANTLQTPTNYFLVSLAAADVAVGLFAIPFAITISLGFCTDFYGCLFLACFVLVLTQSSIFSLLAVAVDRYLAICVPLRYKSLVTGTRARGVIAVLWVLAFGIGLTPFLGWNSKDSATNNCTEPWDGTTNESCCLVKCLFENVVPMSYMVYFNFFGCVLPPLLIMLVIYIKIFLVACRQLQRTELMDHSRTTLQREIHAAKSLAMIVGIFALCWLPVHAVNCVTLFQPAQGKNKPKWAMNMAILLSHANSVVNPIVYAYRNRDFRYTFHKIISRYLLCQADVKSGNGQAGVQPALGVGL
Assay: Cellular reporter gene (CRE-luciferase) A2b receptor antagonist assay in recombinant CHO-K1 cells stimulated with NECA
Details: recombinant CHO-K1 cell line, co-incubation with EC50 concentration of NECA, 3 hours, in some cases means, rounded to two significant digits
Give bare numbers, as −log10 of the molar value.

>>> df
                                   compound  quantity_measured  test_result
0  COC(Cn1c(=O)c2c(C)c(C(=O)N3CCC(O)(CO)CC3)sc2n(CCC(F)(F)F)c1=O)C(F)(F)F (single isomer, unassigned) [Example 114]              pIC50         6.96
1  Cc1c(C(=O)N2CCC(O)CC2)sc2c1c(=O)n(CCc1ccccn1)c(=O)n2CCC(F)(F)F [Example 53]              pIC50         6.77
2  CCn1c(=O)c2c(C)c(C(=O)N3CCC(O)C(O)C3)sc2n(CCC(F)(F)F)c1=O (single isomer, unassigned) [Example 117]              pIC50         6.85
3  Cc1c(C(=O)N2CCC(O)CC2)sc2c1c(=O)n(CC(C)(O)c1ccccc1)c(=O)n2CCC(F)(F)F (single isomer, unassigned) [Example 133]              pIC50         6.07
4  CCn1c(=O)c2c(C)c(C(=O)N3CCNC(=O)C3)sc2n(CCOC)c1=O [Example 37]              pIC50         6.47

Task: Given the entry COCCn1c(=O)n(CC(F)(F)c2ccccc2)c(=O)c2c(C)c(C(=O)N3CCNC(=O)C3)sc21 [Example 94] , what pIC50 was observed with human adenosine A2b receptor (Homo sapiens, UniProt P29275)?
Output: 6.31
